# test.target: cynomolgus monkey CTLA4 (human CTLA4 cDNA with S13N, I17T and L105M) on stably transfected CHO-K1 cells (human cDNA mutated to the cynomolgus monkey extracellular domain) (UniProt P16410)
# Sequence (P16410 36-223, stated change not applied): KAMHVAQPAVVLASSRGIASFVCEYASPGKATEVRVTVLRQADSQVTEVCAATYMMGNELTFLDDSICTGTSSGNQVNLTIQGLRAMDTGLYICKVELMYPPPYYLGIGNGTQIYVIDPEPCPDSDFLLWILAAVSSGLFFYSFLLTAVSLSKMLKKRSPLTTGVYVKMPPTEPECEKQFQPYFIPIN
# assay.remarks: FACS direct binding titration on CHO cells with cynomolgus CTLA4 (head prints IC50)
quantity: IC50 (nM)
Output spec: scalar in nM, unitless text.

What the record says about 4CTLAPMP02F4 (VHH) VHH: EVQLVESGGGLVQTGGSLRLSCAASGRTFSNYTMGWFRQAPGKDREFVAAISRSGALKAYADSVKGRFTPSRDNAKKMAYLQMNSLKPEDTAVYYCAAAPVPWGTRPSFFPYDSWGQGTQVTVSS : IC50 is 2.36

What the record says about 4CTLAPMP12H2 (VHH) VHH: EVQLVESGGGLVEPGGSLRLSCAASGSISSYNVMGWYRQAPGQQRDLVAHIASNGEIMYADSAKGRFTISRDNAKKTVYLQMNSLKPEDTAVYYCKLWVLGNDYWGQRTQVTVSS : IC50 is 5.65

What the record says about 4CTLAPMP02G2 (VHH) VHH: EVQLVESRGGLVQTGGSLRLSCAASGRTFSNYTMGWFRQAPGKDREFVAAISRSGSLKSYADSVKGRFTISRDNAKKMAYLQMNSLKPEDTAVYYCAAAPVPWGTRPSFFTYDSWGQGTQVTVSS : IC50 is 2.08

What the record says about 4CTLAPMP02A5 (VHH) VHH: EVQLVESGGGLVQAGGSLRLSCAASGRTNSTTLMGWSRRAPGKEREFVAAISGSGTLTSYADSVKGRFAISRDNAKNTVYLQMNSLKPEDTAIYYCAAGLTSWALIPSRTLTTWGQGTQVTVSS : IC50 is 7.74

What the record says about 4CTLAPMP02F2 (VHH) VHH: EVQLMESGGGLVQTGGSLRLSCAASGRTFSNYTMGWFRQAPGKDREFVAAISRSGSLKAYADSVKGRFTPSRDNAKKMAYLQMNSLKPEDTAVYYCAAAPVPWGTRPSLFPYDSWGQGTQVTVSS : IC50 is 2.42

What the record says about 4CTLAPMP11E3 (VHH) VHH: EVQLVESGGGLVEPGGSLRLSCAASGSISSYNVMGWYRQAPGQQRDLVAHIASNGEIMYADSAKGRFTISRDNAKKTVYLQMNSLKPEDTAVYYCKLWVLGNDYWGQGTQVTVSS : IC50 is 4.5
